test system: cellulase from Aspergillus niger; assay: cellulase activity: viscosity (flow time) of carboxymethyl cellulose solution; assay type: biochemical; conditions: flow time after 60 minutes incubation; additive 10mM dm⁻³ pre-incubated with enzyme one hour at 25°C; about 24 minutes in the absence of cellulase
Structures can show the parent of a compound that is named as a salt.

compound	Flow Rate (b) With additive 60 (min)
O=c1[nH]c(=O)n(Cl)c(=O)n1Cl [DCIS, sodium salt of dichlorosiocyanuric acid]	19.40
CC1(C)C(=O)N(Cl)C(=O)N1Cl [DCMH, N,N¹-dichlorodimethyl hydantoin]	22.90
O=C1N(Cl)C2C(N1Cl)N(Cl)C(=O)N2Cl (centres unmarked) [TCG, tetrachloroglycoluril]	23.00
O=S(=O)(c1ccccc1)N(Cl)Cl [DCBS, N,N-dichlorobenzene sulphonamide]	18.80
Cln1cncn1 [CT, 1-chloro-1,2,4-triazole]	22.90
CC12N(Cl)C(=O)N(Cl)C1(C)N(Cl)C(=O)N2Cl (centres unmarked) [TCMG, tetrachloro-dimethyl glycoluril]	22.50
CC(=O)OI(OC(C)=O)c1ccccc1 [PIDA, phenyl iodonium di-acetate]	21.80
O=c1[nH]c(=O)n(Cl)c(=O)n1Cl [DCIA, dichloroisocyanuric acid]	22.30

###

system: cellulase from Aspergillus niger; assay: cellulase activity: viscosity (flow time) of carboxymethyl cellulose solution; format: biochemical; settings: flow time after 10 minutes incubation; additive 10mM dm⁻³ pre-incubated with enzyme one hour at 25°C; about 24 minutes in the absence of cellulase
Structures can show the parent of a compound that is named as a salt.

compound	testTarget	quantityUnit	Flow Rate (b) With additive 10
O=C1N(Cl)C2C(N1Cl)N(Cl)C(=O)N2Cl (centres unmarked)	cellulase from Aspergillus niger	min	23.60
CC1(C)C(=O)N(Cl)C(=O)N1Cl	cellulase from Aspergillus niger	min	23.10
O=c1[nH]c(=O)n(Cl)c(=O)n1Cl [DCIA, dichloroisocyanuric acid]	cellulase from Aspergillus niger	min	22.10
O=S(=O)(c1ccccc1)N(Cl)Cl [DCBS, N,N-dichlorobenzene sulphonamide]	cellulase from Aspergillus niger	min	21.20
O=c1[nH]c(=O)n(Cl)c(=O)n1Cl [DCIS, sodium salt of dichlorosiocyanuric acid]	cellulase from Aspergillus niger	min	21.90
Cln1cncn1	cellulase from Aspergillus niger	min	23.50
CC12N(Cl)C(=O)N(Cl)C1(C)N(Cl)C(=O)N2Cl (centres unmarked)	cellulase from Aspergillus niger	min	22.80
CC(=O)OI(OC(C)=O)c1ccccc1 [PIDA, phenyl iodonium di-acetate]	cellulase from Aspergillus niger	min	22.60
